- Study system: human D2R/β-arrestin (Homo sapiens (Human), UniProt P14416)
- Sequence (P14416 whole entry): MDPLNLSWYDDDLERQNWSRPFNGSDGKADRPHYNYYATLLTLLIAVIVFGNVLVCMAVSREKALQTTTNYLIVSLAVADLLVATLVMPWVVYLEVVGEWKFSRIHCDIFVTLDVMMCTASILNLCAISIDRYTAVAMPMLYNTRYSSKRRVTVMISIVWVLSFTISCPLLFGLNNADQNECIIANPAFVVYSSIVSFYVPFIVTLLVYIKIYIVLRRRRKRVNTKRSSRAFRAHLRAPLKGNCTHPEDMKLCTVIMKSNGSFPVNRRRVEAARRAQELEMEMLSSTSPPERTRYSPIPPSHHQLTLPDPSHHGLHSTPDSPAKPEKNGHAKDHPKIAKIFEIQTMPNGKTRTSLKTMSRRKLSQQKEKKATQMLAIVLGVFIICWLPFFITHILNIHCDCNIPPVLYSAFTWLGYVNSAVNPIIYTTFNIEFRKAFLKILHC
- Test description: β-arrestin agonist assay (PathHunter)
- Assay type: cell-based
- Conditions: CHO-K1 cells expressing human D2R/β-arrestin; agonist mode
Measured quantity: EC50

Sample records with EC50:
Q) Give its EC50 value. Item: CC1(Oc2ccccc2)CCN(CCOc2ccccc2C#N)CC1
A) < 0.1 µM

Q) Give its EC50 value. Item: CC(=O)N(CCN1CCC(C)(Oc2ccc(Cl)cc2)CC1)c1ccccc1C(F)(F)F
A) > 30 µM

Q) Give its EC50 value. Item: CC1(Oc2ccc(Cl)cc2)CCN(CCOc2ccccc2F)CC1
A) < 0.1 µM

Q) Give its EC50 value. Item: CC(=O)c1ccc(OCCN2CCC(C)(Oc3ccc(Cl)cc3)CC2)cc1
A) > 30 µM

Q) Give its EC50 value. Item: CN(c1ccccc1)C1(C)CCN(CCOc2ccccc2C(F)(F)F)CC1
A) > 30 µM

***
Q) Give its EC50 value. Item: COc1ccccc1OCCN1CCC(C)(Oc2ccccc2)CC1
A) > 30 µM

Q) Give its EC50 value. Item: Cc1cccc(OCCN2CCC(C)(Oc3ccc(Cl)cc3)C2)c1 (centres unmarked)
A) > 30 µM

Q) Give its EC50 value. Item: CC1(Oc2ccc(Cl)cc2)CCCN(CCOc2ccccc2F)C1 (centres unmarked) [Example 98a]
A) > 30 µM

Q) Give its EC50 value. Item: CC1(Oc2cccc(C(F)(F)F)c2)CCCN(CCOc2ccccc2Cl)C1 (centres unmarked)
A) > 30 µM

Q) Give its EC50 value. Item: CC1(Oc2ccccc2[N+](=O)[O-])CCN(CCOc2ccccc2)C1 (centres unmarked)
A) > 30 µM

Q) Give its EC50 value. Item: COc1ccccc1OC1(C)CCN(CCOc2ccccc2)C1 (centres unmarked)
A) > 30 µM

Q) Give its EC50 value. Item: CC1(Oc2ccc(Cl)cc2)CCN(CCOc2ccccc2OC(F)(F)F)CC1
A) 0.1 to 1 µM

Q) Give its EC50 value. Item: CC1(Oc2ccc(Cl)cc2)CCN(CCOc2ccc(C(C)(C)O)cc2)CC1
A) > 30 µM

Q) Give its EC50 value. Item: CNC(=O)C1(C)CCN(CC2COc3ccccc3O2)CC1 (centres unmarked) [Compound 202]
A) > 30 µM

Q) Give its EC50 value. Item: FC(F)(F)c1ccccc1OCCN1CCC2(CC1)Cc1ccccc1O2
A) > 30 µM

Q) Give its EC50 value. Item: CC1(Oc2ccc(Cl)cc2)CCN(CC2COc3ccccc3O2)CC1 (centres unmarked)
A) 0.1 to 1 µM

---

Items are presented alongside their recorded EC50.
- Study system: human D2R/β-arrestin (Homo sapiens (Human), UniProt P14416)
- Test description: Gi/cAMP agonist assay (Lance Ultra cAMP, forskolin)
- Format: cell-based
- Conditions: CHO-K1 cells expressing human D2R/β-arrestin; agonist mode, 2.5 μM forskolin

Q) Write down the reported EC50 of C#CC1(Oc2ccc(Cl)cc2)CCN(CCOc2ccccc2C(F)(F)F)CC1 , test system: human D2R/β-arrestin (Homo sapiens (Human), UniProt P14416).
A) < 100 nM

Q) Write down the reported EC50 of COc1ccc(F)cc1OCCN1CCC(C)(Oc2ccc(Cl)cc2)CC1 , test system: human D2R/β-arrestin (Homo sapiens (Human), UniProt P14416).
A) < 100 nM

Q) Write down the reported EC50 of CC1(Oc2ccc([N+](=O)[O-])cc2)CCN(CCOc2ccccc2)C1 (centres unmarked) , test system: human D2R/β-arrestin (Homo sapiens (Human), UniProt P14416).
A) > 30000 nM

Q) Write down the reported EC50 of CC1(Oc2ccc(Cl)cc2)CCN(CCOc2cncs2)CC1 , test system: human D2R/β-arrestin (Homo sapiens (Human), UniProt P14416).
A) < 100 nM

Q) Write down the reported EC50 of CC1(Oc2ccccc2)CCN(CCOc2ccc(F)cc2C(F)(F)F)CC1 , test system: human D2R/β-arrestin (Homo sapiens (Human), UniProt P14416).
A) > 30000 nM

***
Q) Write down the reported EC50 of CC1(NC(=O)C2CC2)CCN(C[C@H]2COc3ccccc3O2)CC1 , test system: human D2R/β-arrestin (Homo sapiens (Human), UniProt P14416).
A) < 100 nM

Q) Write down the reported EC50 of FC1(Cc2ccccc2)CCN(CCOc2ccccc2C(F)(F)F)CC1 , test system: human D2R/β-arrestin (Homo sapiens (Human), UniProt P14416).
A) > 30000 nM

Q) Write down the reported EC50 of CC1(Oc2ccc(Cl)cc2)CCN(CCOc2ccc(Cl)c(Cl)c2)C1 (centres unmarked) , test system: human D2R/β-arrestin (Homo sapiens (Human), UniProt P14416).
A) < 100 nM

Q) Write down the reported EC50 of C[C@@]1(O)C[C@H]2CC[C@@H](C1)N2CCOc1ccccc1C(F)(F)F , test system: human D2R/β-arrestin (Homo sapiens (Human), UniProt P14416).
A) > 30000 nM

Taken from patent US11498896B2.
